Reference source: patent US20130040933A1

pIC50 by entry:
- Target entity: rhJAK3 (Homo sapiens, UniProt P52333)
- Construct: recombinant purified GST-tagged catalytic domain for each enzyme; purchased Invitrogen PV3855
- Sequence (P52333 822-1111 limits assumed): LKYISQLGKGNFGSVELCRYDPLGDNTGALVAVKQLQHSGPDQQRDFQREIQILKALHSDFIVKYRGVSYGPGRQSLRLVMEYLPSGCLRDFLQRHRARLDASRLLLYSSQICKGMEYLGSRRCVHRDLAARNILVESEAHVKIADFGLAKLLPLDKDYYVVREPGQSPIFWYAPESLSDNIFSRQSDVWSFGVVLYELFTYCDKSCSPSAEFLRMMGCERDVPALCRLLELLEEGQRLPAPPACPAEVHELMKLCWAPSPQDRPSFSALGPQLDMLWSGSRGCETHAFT
- Procedure summary: JAK Biochemical HTRF Assay (JAK3)
- Protocol conditions: recombinant purified GST-tagged catalytic domain, HTRF format, [ATP] 1.7 μM; read-out: rhJAK3 IC50
- Procedure: JAK Biochemical HTRF Assay Protocol The ability of compounds to inhibit the activity of JAK1, JAK2, JAK3, and TYK2 was measured using a recombinant purified GST-tagged catalytic domain for each enzyme (Invitrogen JAK1 #PV4774, JAK2 #PV4210, JAK3 #PV3855, TYK2 #PV4790) in an HTRF format biochemical assay. […] Plates were further incubated 60 min at room temperature with shaking and then read on a Perkin Elmer Envision (λex=337 nm, λem=665 and 615 nm, TRF delay time=20 μs). […]
pIC50: −log10 of the molar value.
Assay readout: pIC50

• C[C@]1(C(=O)NCC(F)(F)F)CCN1c1cncc(-c2c[nH]c3ncc(Cl)cc23)n1 = ≥ 9.00
• CC(C)(Nc1cncc(-c2c[nH]c3ncc(Cl)cc23)n1)C(=O)NCC(F)(F)F = ≥ 9.00
• O=C(NCC(F)(F)F)C1=C(c2cncc(-c3c[nH]c4ncc(Cl)cc34)n2)CCC1 = 8.00 to 9.00

* * *

List of IC50 values.
- Target entity: rhJAK3 (Homo sapiens)
- Construct: recombinant purified GST-tagged catalytic domain for each enzyme; purchased Invitrogen PV3855
- Procedure summary: JAK Biochemical HTRF Assay (JAK3)
- Protocol conditions: recombinant purified GST-tagged catalytic domain, HTRF format, [ATP] 1.7 μM; read-out: rhJAK3 IC50
Assay readout: IC50

- C[C@@H](Nc1cncc(-c2c[nH]c3ncc(Cl)cc23)n1)C(=O)N1CCN(CC(F)(F)F)CC1: 100 to 1000 nM
- C[C@@H](Nc1cncc(-c2c[nH]c3ncc(Cl)cc23)n1)C(=O)NC1CCC1: 10 to 100 nM
- CCNC(=O)[C@H]1CCCN1c1cncc(-c2c[nH]c3ncc(Cl)cc23)n1: 1 to 10 nM
- C[C@@H](Nc1cncc(-c2c[nH]c3ncc(Cl)cc23)n1)C(=O)NCCc1cn[nH]c1: 100 to 1000 nM
- O=C(NCC(F)(F)F)[C@@H]1CC[C@@H](Nc2cncc(-c3c[nH]c4ncc(Cl)cc34)n2)C1: 1 to 10 nM
- NC(=O)C1(Oc2cncc(-c3c[nH]c4ncc(Cl)cc34)n2)CC1: 1 to 10 nM
- C[C@H](Nc1cncc(-c2c[nH]c3ncc(Cl)cc23)n1)C(=O)N1CCC(F)(F)C1: 10 to 100 nM
- O=C(Cc1cncc(-c2c[nH]c3ncc(Cl)cc23)n1)NCCC(F)(F)F: 10 to 100 nM
- CC(Cc1cncc(-c2c[nH]c3ncc(Cl)cc23)n1)C(=O)NCC(F)(F)F (stereo not shown): 10 to 100 nM
- C[C@@H](Nc1cncc(-c2c[nH]c3ncc(Cl)cc23)n1)C(=O)NCc1ccc(N)cc1: 100 to 1000 nM
- O=C(Cn1ccc2ncc(-c3c[nH]c4ncc(Cl)cc34)nc21)NCC(F)(F)F: 10 to 100 nM
- CC(=O)N1CCN(c2cncc(-c3c[nH]c4ncc(Cl)cc34)n2)[C@@H](C(=O)NCC(F)(F)F)C1: 1 to 10 nM
- C[C@@H](Nc1cncc(-c2c[nH]c3ncc(Cl)cc23)n1)C(=O)NCCCN1CCS(=O)(=O)CC1: 100 to 1000 nM
- O=C(NCCC(F)(F)F)C1(Oc2cncc(-c3c[nH]c4ncc(Cl)cc34)n2)CC1: 100 to 1000 nM
- C[C@H](Nc1cncc(-c2c[nH]c3ncc(Cl)cc23)n1)C(=O)NCC(C)(C)C: 100 to 1000 nM
- CN(C)C(=O)C1(Oc2cncc(-c3c[nH]c4ncc(Cl)cc34)n2)CC1: 1 to 10 nM

* * *

- Target entity: rhJAK3 (Homo sapiens, UniProt P52333)
- Construct: recombinant purified GST-tagged catalytic domain for each enzyme; purchased Invitrogen PV3855
- Procedure summary: JAK Biochemical HTRF Assay (JAK3)
- Protocol conditions: recombinant purified GST-tagged catalytic domain, HTRF format, [ATP] 1.7 μM; read-out: JAK3 IC50
pIC50: −log10 of the molar value.
Reported pIC50 by item:
Assay readout: pIC50

* C[C@@H](Nc1cncc(-c2c[nH]c3ncc(-c4cccc(CN5CCOCC5)c4)cc23)n1)C(=O)NCC(F)(F)F | ≥ 9.00
* C[C@@H](Nc1cncc(-c2c[nH]c3ncc(-c4ccccc4CN(C)C)cc23)n1)C(=O)NCC(F)(F)F | 8.00 to 9.00
* CC(C)(Nc1cncc(-c2c[nH]c3ncc(C4CC4)cc23)n1)C(=O)NCC(F)(F)F | ≥ 9.00
* C[C@@H](Nc1cncc(-c2c[nH]c3ncc(-c4cnc(N)nc4)cc23)n1)C(=O)NCC(F)(F)F | ≥ 9.00
* C[C@@H](Nc1cncc(-c2c[nH]c3ncc(-c4ccc(N5CCCC5)cc4)cc23)n1)C(=O)NCC(F)(F)F | ≥ 9.00
* C[C@@H](Nc1cncc(-c2c[nH]c3ncc(-c4cccc(N5CCCC5)c4)cc23)n1)C(=O)NCC(F)(F)F | ≥ 9.00
* C[C@@H](Nc1cncc(-c2c[nH]c3ncc(C4=CCOCC4)cc23)n1)C(=O)NCC(F)(F)F | ≥ 9.00
* COCC#Cc1cnc2[nH]cc(-c3cncc(N[C@H](C)C(=O)NCC(F)(F)F)n3)c2c1 | ≥ 9.00
* C[C@@H](Nc1cncc(-c2c[nH]c3ncc(/C=C/CN(C)C)cc23)n1)C(=O)NCC(F)(F)F | 8.00 to 9.00
* C[C@@H](Nc1cncc(-c2c[nH]c3ncc(-c4cccnc4F)cc23)n1)C(=O)NCC(F)(F)F | ≥ 9.00
* CC(C)[C@@H](Nc1cncc(-c2c[nH]c3ncc(C#N)cc23)n1)C(=O)NCC(F)(F)F | ≥ 9.00
